Molecular target: Sentrin-specific protease 6 (Homo sapiens, UniProt Q9GZR1);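 note: Luminescence-based dose-response confirmatory assay of SENP6 inhibition, following up an ultra-high-throughput screen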
Sequence (Q9GZR1 whole entry): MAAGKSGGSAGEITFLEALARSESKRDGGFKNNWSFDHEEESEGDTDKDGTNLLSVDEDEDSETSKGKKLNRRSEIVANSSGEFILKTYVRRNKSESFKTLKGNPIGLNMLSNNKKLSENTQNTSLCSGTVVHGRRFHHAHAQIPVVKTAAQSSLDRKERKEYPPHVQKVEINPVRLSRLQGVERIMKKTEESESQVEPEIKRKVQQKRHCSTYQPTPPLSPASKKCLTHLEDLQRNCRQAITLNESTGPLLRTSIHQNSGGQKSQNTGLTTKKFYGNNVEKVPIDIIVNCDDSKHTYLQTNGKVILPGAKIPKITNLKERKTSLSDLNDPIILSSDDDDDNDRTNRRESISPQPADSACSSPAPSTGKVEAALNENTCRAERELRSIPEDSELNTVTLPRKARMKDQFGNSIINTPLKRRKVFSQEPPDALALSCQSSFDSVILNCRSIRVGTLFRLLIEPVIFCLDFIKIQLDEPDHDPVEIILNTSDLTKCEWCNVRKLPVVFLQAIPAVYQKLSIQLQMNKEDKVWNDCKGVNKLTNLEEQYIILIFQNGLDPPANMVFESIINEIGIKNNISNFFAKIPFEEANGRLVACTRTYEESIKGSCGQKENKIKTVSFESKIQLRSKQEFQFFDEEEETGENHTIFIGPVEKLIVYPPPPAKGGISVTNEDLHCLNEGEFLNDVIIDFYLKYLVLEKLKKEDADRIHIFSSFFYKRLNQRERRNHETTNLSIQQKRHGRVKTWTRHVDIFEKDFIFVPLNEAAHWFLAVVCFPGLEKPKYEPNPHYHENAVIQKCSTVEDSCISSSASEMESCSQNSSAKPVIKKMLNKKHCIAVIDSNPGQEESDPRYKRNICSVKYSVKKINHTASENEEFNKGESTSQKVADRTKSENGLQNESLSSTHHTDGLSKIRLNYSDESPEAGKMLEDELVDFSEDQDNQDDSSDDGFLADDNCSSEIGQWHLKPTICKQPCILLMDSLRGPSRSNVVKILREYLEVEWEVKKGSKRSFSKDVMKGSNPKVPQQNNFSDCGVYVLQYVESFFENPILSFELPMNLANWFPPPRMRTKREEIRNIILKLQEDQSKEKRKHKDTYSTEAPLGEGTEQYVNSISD
Assay type: functional
Calls of active or inactive are those of the source.
One label from this list, please: active, inactive

Query block: Hey, what did the test say about COc1ccccc1N1C(=O)Cc2ccccc2C1=O ?
Result block: active

Query block: Do the same for Cc1cccc(N=Nc2ccc(N(C)C)cc2)c1 please
Result block: active

Query block: Next compound up: O=C(CCCc1ccccc1)c1ccccc1
Result block: active

Query block: What about this compound? Cc1cccc(-c2cc3nc4c(c(N5CCOCC5)n3n2)CCCC4)c1
Result block: active

Query block: Try the compound O=C(Nc1nccs1)c1ccc(-c2ccccc2Cl)o1
Result block: inactive

Query block: Also CCOC(=O)c1c(C)[nH]c(N=Nc2cccc(OC)c2)c1C ?
Result block: active

Query block: Oc1ccccc1/C=C/c1noc(-c2ccccc2O)n1 ?
Result block: inactive

----------
Target: Aminopeptidase N (Plasmodium falciparum FcB1/Columbia, UniProt O96935)
Sequence (O96935 whole entry): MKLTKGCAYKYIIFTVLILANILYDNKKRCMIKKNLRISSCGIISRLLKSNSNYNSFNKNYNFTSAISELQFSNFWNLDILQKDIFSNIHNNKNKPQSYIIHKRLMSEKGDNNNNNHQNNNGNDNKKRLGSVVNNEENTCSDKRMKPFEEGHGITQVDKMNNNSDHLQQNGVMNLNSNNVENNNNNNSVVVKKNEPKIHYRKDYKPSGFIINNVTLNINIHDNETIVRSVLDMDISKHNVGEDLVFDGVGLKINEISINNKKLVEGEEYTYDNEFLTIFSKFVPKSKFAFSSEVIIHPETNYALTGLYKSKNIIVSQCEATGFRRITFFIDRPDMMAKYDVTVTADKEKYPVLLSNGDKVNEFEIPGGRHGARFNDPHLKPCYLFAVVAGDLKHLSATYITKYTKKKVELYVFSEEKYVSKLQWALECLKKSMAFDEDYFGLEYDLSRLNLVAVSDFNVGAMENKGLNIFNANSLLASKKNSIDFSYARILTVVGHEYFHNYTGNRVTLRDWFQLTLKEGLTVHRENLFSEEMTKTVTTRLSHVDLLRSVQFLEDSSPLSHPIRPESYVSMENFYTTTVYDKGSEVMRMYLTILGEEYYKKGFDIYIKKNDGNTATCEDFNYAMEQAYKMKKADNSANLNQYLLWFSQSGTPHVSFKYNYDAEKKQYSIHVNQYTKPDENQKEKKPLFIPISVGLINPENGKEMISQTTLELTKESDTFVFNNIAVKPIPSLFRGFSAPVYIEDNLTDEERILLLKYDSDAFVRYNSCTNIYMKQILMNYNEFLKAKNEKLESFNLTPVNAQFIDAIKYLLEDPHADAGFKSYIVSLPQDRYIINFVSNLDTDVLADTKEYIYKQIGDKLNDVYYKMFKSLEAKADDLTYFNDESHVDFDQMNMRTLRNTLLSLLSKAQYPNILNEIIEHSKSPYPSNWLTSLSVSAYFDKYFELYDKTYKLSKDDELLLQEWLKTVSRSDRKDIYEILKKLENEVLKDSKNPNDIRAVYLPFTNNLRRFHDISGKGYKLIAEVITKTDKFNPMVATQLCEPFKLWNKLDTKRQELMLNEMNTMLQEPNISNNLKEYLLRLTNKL
Assay: malaria alanyl aminopeptidase activity blockers – biochemical, fluorogenic H-Leu-NHMec substrate, 1536-well (AID 1445)
Parameters: species or system Plasmodium falciparum 3D7, 3D7
Activity calls are given as the source filed them.
MEASURED PROPERTY: IC50

Query block: Which measured IC50 value corresponds to O=C(O)CCC(=O)N1N=C(c2c(-c3ccccc3)c3cc(Cl)ccc3[nH]c2=O)CC1c1ccccc1 (centres undefined) ?
Result block: 4.6 µM (active)

Query block: Next record, please: COc1cccc(C(=O)NC2CCN(CC(=O)NCc3ccccc3OC)CC2)c1
Result block: 26.9 µM (active)

Query block: Now give it for CCOc1cc(C2C3=C(O)CCCC3=NC3=C2C(=O)CCC3)cc(Cl)c1O (centres undefined) too.
Result block: 23.9 µM (active)

Query block: Queued: O=C(Cn1c(SCc2ccccc2)nc2ccccc21)N1CCOCC1
Result block: 48.7 µM (active)

Query block: Same read-out for CC(=O)Nc1cccc(NC(=O)C2CCCN2C(=O)Nc2cccc(C)c2)c1 (centres undefined) ?
Result block: 39.1 µM (active)

Query block: // query: O=C(O)CSc1c(O)nc2ccc(Cl)cc2c1-c1ccccc1
Result block: 41 µM (active)

Query block: And for CNC(=O)c1cc2c(=O)n3cccc(C)c3nc2n(C(C)C)c1=N ?
Result block: 65.6 µM (active)

Query block: What about this compound? Cc1nc(N)nc(N)c1/C=C/C(C)(C)c1ccc(Cl)cc1
Result block: 66.2 µM (active)

Query block: Queued: Nc1nonc1-c1nc2ccccc2n1CC(=O)N/N=C/c1ccc(-c2cccc(C(=O)O)c2)o1
Result block: 12.5 µM (active)

----------
Target: Bcl-2-related protein A1 (Mus musculus, UniProt Q07440);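 note: confirmatory dose–response counterscreen on Bfl-1, used to check hits from a UBC13 polyubiquitin inhibitor campaign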
Sequence (Q07440 whole entry): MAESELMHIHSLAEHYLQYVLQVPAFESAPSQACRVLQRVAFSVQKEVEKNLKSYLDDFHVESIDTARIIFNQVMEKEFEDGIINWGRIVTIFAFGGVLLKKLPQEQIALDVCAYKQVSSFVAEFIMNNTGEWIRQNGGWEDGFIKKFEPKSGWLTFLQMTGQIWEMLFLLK
Type: functional
Activity calls are given as the source filed them.
Just give me one of these, please: active, inactive

Query block: What did the test return for Cc1ccc(N(C(=O)c2snc(C(N)=O)c2N)C(C(=O)NCCC(C)C)c2ccco2)cc1 (stereo unspecified) ?
Result block: inactive

Query block: Can you handle Cc1ccc2cc3c(nc2c1)N(c1ccccc1)CC3 next?
Result block: inactive

Query block: Query Nc1ccc2[nH]c(-c3cccc(-c4nc5cc(N)ccc5[nH]4)n3)nc2c1 next
Result block: active

Query block: Moving on to Cc1ccc(C(=O)NNC(=O)c2nn(-c3ccc(F)cc3)ccc2=O)cc1
Result block: inactive

Query block: Try O=C1c2cccc3cccc(c23)C(=O)N1Cc1cccnc1 next.
Result block: inactive

Query block: Field entry: C#CCOCCOCCOCCNc1nc(N2CCN(C(=O)CCCCCCCCCCNC(=O)Cn3cc(CCCCCN)nn3)CC2)nc(N2CCN(C(=O)CCCCCCCCCCNC(=O)[C@@H](CCSC)n3cc(CCO)nn3)CC2)n1
Result block: active

----------
Test system: SN12K1
Assay: cells
Format: functional
Conditions: Homo sapiens
The source made the active and inactive calls.
Select the correct class. Options are active, inactive and nothing else.

Query block: Tell me the recorded outcome of this test for O=c1[nH]c(=O)n([C@H]2C[C@H](O)[C@@H](CO)O2)cc1F [FLOXURIDINE] .
Result block: active

Query block: Please give the result for CC(=O)OC1C(O)C(C)OC(OC(=O)C2CCC3C(C2)OC2(CC(OC(=O)/C=C/c4ccccc4)C(C)CO2)C32CO2)C1OC1OC(C)C(O)C(O)C1O (centres undefined) too.
Result block: active

Query block: Another: C#CC[N+](CCO)(CCO)CCCCCCCCCCCCCCCCCC
Result block: inactive

Query block: Next molecule: C=C1C(=O)OC2C=C(C)CC3C=C(CCC=C(C)CCC12)C(=O)O3 (centres undefined)
Result block: inactive

----------
Would you mind telling me the reported EC50 of each entry?
Target: UniProt:P38532
Sequence (P38532 whole entry): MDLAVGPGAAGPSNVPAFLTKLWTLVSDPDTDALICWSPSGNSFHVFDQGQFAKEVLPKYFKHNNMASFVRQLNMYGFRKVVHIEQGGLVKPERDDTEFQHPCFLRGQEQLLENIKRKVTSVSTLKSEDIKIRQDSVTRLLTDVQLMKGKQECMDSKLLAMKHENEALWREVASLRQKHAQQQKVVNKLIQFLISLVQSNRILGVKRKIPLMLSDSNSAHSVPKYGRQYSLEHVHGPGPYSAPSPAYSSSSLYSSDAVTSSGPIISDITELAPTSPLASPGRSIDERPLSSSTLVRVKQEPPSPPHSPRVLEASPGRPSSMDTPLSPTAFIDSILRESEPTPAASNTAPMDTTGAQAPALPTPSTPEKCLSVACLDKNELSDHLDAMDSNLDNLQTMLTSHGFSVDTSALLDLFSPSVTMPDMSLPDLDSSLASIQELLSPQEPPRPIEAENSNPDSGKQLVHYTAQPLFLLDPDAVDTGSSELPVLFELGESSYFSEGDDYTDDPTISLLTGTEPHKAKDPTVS
Experiment: enhancement of HSF1-driven luciferase signal – cell-based, NIH3T3, luminescence, dose retest, confirmation (AID 435004);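 note: stress induced by proteasome inhibitor MG132 added 30 min after compound; luciferase reporter driven by HSF1 response element in NIH3T3 cells; actives raise luminescence as potentiators of the MG132 stress response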
Assay type: functional
Calls of active or inactive are those of the source.

Query block: # query: EC50 of entry CC(=O)NCCc1nc2ccccc2n1CCOc1cccc(C)c1
Result block: > 260 µM (inactive)

Query block: What about N#CC1=C(N)Oc2c(O)cc3ccccc3c2C1c1ccsc1 (stereo not given) ?
Result block: 41.5 µM (active)

Query block: // repeat for O=C(Nc1cccc(Cl)c1)C1CCCN(S(=O)(=O)c2ccc(F)cc2)C1 (stereo not given) and report
Result block: > 260 µM (inactive)

Query block: Now consider CN1C(=O)C2C(c3ccc(N(C)C)cc3)=NN(Cc3ccccc3)C2C1=O (stereo not given) and answer again.
Result block: 40.3 µM (active)

Query block: Input C[C@]12CC[C@@H]3c4cc(O)c(O)cc4CC[C@H]3[C@@H]1CC[C@@H]2O
Result block: 4.07 µM (active)

----------
Target: Large T antigen (Simian virus 40);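 note: Confirmatory-stage PubChem screen for compounds that inhibit SV40 T antigen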
Sequence (P03070 whole entry): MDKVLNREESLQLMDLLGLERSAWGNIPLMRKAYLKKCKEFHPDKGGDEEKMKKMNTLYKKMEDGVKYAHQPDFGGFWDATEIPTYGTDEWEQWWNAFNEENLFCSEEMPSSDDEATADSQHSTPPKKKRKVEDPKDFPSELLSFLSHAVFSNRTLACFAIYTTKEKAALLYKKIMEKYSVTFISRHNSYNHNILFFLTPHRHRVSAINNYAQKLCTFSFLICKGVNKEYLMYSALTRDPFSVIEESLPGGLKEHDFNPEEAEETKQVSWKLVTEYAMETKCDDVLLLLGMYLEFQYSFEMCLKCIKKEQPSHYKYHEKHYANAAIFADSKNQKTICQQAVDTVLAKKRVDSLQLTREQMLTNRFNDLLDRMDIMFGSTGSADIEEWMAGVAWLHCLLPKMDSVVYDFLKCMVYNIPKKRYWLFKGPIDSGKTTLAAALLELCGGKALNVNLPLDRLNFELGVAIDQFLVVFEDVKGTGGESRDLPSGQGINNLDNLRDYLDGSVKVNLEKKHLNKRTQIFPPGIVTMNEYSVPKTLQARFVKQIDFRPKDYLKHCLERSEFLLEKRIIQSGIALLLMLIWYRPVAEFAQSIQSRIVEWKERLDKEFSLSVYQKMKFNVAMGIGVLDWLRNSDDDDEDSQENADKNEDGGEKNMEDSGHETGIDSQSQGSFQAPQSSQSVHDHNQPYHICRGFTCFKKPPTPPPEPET
Type: functional, Betapolyomavirus macacae
Activity calls are given as the source filed them.
MEASURED PROPERTY: IC50

Query block: Identify the measured IC50 of CC(=O)Oc1cc2oc(=O)cc(C)c2cc1OC(C)=O for Large T antigen (Simian virus 40).
Result block: 21.4 µM (active)

Query block: Follow-up entry: CN1CCN(/N=C/c2c[nH]c3ccccc23)CC1
Result block: 15.4 µM (active)

Query block: Would you mind doing N#C/C(C(=O)Nc1ccc(Cl)cc1)=C(/S)Nc1ccccc1 as well?
Result block: 16.5 µM (active)

Query block: Then this molecule: CN1C(=O)C2C(c3ccc(N(C)C)cc3)=NN(Cc3ccccc3)C2C1=O (configuration not stated)
Result block: 19 µM (active)

Query block: Try this molecule too: N#C/C(=C\c1ccc(O)c(O)c1)C(=O)Nc1cccc2ncccc12
Result block: 27.8 µM (active)

Query block: Repeat with CS(=O)(=O)N1CCc2cc(C(=O)Nc3ccc(O)cc3)ccc21
Result block: > 100 µM (active)

Query block: Query Oc1ccc(/C=N/Nc2ccc(Cl)nn2)cc1O next
Result block: 8.16 µM (active)

Hey, just so you know, these numbers are from ChEMBL document CHEMBL1201862.
